target system: 5-hydroxytryptamine receptor 1B (Rattus norvegicus)
protocol: Concentration necessary to achieve half maximal inhibition of [125I]- Iodocyanopindolol, binds to 5-hydroxytryptamine 1B receptor at 1 uM
assay endpoint: IC50 (nM)
Report only the number, with the unit nM understood.

For this compound ( CCCN1CCC=C2c3c(OC)cccc3OCC21 (stereo unspecified) ), measured IC50 is 1320

====

target system: 5-hydroxytryptamine receptor 1B (Rattus norvegicus, UniProt P28564)
Sequence (P28564 whole entry): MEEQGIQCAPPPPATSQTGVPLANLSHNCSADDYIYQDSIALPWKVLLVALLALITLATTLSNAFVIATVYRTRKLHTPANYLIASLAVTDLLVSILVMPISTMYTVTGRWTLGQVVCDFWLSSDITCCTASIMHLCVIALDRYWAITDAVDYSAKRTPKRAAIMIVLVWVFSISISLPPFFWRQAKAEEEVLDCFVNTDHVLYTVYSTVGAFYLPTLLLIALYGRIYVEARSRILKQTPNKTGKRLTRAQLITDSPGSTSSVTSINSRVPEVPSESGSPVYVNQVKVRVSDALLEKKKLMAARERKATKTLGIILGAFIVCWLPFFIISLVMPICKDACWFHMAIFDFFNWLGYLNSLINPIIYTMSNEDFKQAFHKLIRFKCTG
protocol: Concentration necessary to achieve half maximal inhibition of [125I]- Iodocyanopindolol binding to 5-hydroxytryptamine 1B receptor at 1 uM
assay endpoint: IC50 (µM)
Report only the number, with the unit µM understood.

- structure string: "FC(F)(F)c1cccc(N2CCNCC2)c1"
  measured result: 0.051

Form field IC50 for item "COc1cc(C)cc2c1[C@H]1CCCN(C)[C@@H]1CO2" on 5-hydroxytryptamine receptor 1B (Rattus norvegicus, UniProt P28564): 0.825

====

Catalogue of molecules with associated IC50
target system: 5-hydroxytryptamine receptor 1A (Rattus norvegicus, UniProt P19327)
Sequence (P19327 whole entry): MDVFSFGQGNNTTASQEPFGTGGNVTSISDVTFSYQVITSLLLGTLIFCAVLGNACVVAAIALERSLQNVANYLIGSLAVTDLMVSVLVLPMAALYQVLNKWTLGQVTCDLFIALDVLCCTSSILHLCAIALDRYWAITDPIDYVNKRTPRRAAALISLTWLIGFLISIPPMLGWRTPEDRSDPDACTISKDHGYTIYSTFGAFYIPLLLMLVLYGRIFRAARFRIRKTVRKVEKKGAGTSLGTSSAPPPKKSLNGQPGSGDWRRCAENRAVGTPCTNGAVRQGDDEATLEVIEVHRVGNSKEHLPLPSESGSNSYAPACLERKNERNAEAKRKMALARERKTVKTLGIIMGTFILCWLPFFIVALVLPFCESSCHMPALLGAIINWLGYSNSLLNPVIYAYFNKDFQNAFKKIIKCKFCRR
Report only the number, with the unit nM understood.

Here is how some molecules turned out for IC50.
- molecule: "CCCN1CCC[C@@H]2c3cc(O)ccc3OC[C@H]21"
  assay endpoint: "IC50"
  quantity unit: "nM"
  measured result: 1210
- molecule: "Cc1ccc(O)c2c1[C@H]1CCCN(C)[C@@H]1CO2"
  assay endpoint: "IC50"
  quantity unit: "nM"
  measured result: 76
- molecule: "CCCN1CCC=C2c3cc(O)ccc3OCC21 (centres undefined)"
  assay endpoint: "IC50"
  quantity unit: "nM"
  measured result: 244
- molecule: "COc1cc(C)cc2c1[C@H]1CCCN(C)[C@@H]1CO2"
  assay endpoint: "IC50"
  quantity unit: "nM"
  measured result: 75
- molecule: "CCCN1CCC[C@@H]2c3ccccc3OC[C@H]21"
  assay endpoint: "IC50"
  quantity unit: "nM"
  measured result: 219
- molecule: "CCCN1CCC[C@@H]2c3c(OC)cc(C)cc3OC[C@H]21"
  assay endpoint: "IC50"
  quantity unit: "nM"
  measured result: 186
- molecule: "CCCN1CCC[C@@H]2c3cccc(O)c3OC[C@H]21"
  assay endpoint: "IC50"
  quantity unit: "nM"
  measured result: 1000
- molecule: "CCCCN1CCC[C@@H]2c3cccc(O)c3OC[C@H]21"
  assay endpoint: "IC50"
  quantity unit: "nM"
  measured result: 1200

For this molecule ( "COc1ccc(C)c2c1OC[C@@H]1[C@@H]2CCCN1C" ), measured IC50 is 19

For this molecule ( CCCN1CCC=C2c3ccccc3OCC21 (centres undefined) ), measured IC50 is 74

For this molecule ( "CCCN1CCC[C@@H]2c3c(O)cccc3OC[C@H]21" ), measured IC50 is 4

For this molecule ( "CCCN1CCC[C@@H]2c3c(OC)cccc3OC[C@H]21" ), measured IC50 is 9

For this molecule ( CCCN1CCC=C2c3c(OC)cccc3OCC21 (centres undefined) ), measured IC50 is 1.8

For this molecule ( "COc1cccc2c1OC[C@@H]1[C@@H]2CCCN1C" ), measured IC50 is 253
